# subject_of_test: Aldehyde dehydrogenase 1A1 (Homo sapiens) (UniProt P00352)
# Sequence (P00352 whole entry, looked up): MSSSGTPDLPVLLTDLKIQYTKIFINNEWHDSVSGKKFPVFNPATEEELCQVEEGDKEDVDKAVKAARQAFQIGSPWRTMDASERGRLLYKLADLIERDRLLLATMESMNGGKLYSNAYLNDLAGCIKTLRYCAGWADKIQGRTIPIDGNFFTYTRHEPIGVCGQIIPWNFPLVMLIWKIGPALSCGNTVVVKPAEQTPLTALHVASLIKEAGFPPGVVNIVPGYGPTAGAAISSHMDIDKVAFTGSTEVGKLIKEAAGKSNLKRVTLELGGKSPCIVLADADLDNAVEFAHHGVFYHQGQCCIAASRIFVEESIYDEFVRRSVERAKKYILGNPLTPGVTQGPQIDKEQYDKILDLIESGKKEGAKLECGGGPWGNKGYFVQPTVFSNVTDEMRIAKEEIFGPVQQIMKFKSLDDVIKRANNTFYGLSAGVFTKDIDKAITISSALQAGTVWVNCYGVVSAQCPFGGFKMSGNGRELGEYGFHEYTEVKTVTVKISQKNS
# assay_method_text: qHTS Assay for Inhibitors of Aldehyde Dehydrogenase 1 (ALDH1A1)
# measurement_setup: Purified ALDH1A1, NADH fluorescence, propionaldehyde substrate; series mostly up to 75.3 µM
Among all 220,000 compounds or so, about 16,000 (7.3%) were called active. Inconclusive results (about 25%) are left out. Calls follow the shape of the dose curve; as a rule, active = well fitted inhibition curve with a large enough effect (not every such curve was filed as active); inconclusive = small, poorly fitted or top-dose-only effect, or another doubt; inactive = no such curve, though single readings can be large or run the other way. For the sample, actives were picked, then their nearest neighbours and some compounds at random.
Your answer must be one of the following: label 1 = active, label 0 = inactive

molecule: CC(=O)c1ccccc1NC(=O)CC1(CC(=O)O)CCCCC1
label_value: label 0

Lab log entry: CC(=O)COc1ccc2c(-c3ccccc3)cc(=O)oc2c1 — outcome as called in the assay?
label 1

Lab log entry: Cc1ccc(SC(CC(=O)c2ccc(C(C)(C)C)cc2)C(=O)O)cc1 (stereo not given) — outcome as called in the assay?
label 1

Lab log entry: CCOC(=O)COc1cc(O)c2c(=O)cc(-c3ccccc3)oc2c1 — outcome as called in the assay?
label 0

Lab log entry: Cc1ccn(C(CC(=O)c2ccc(Br)cc2)C(=O)O)n1 (stereo not given) — outcome as called in the assay?
label 0

* * *

# subject_of_test: Aldehyde dehydrogenase 1A1 (Homo sapiens)
# assay_method_text: qHTS Assay for Inhibitors of Aldehyde Dehydrogenase 1 (ALDH1A1)
# measurement_setup: Purified ALDH1A1, NADH fluorescence, propionaldehyde substrate; series mostly up to 75.3 µM
Hit rate of the full screen: of about 220,000 compounds, about 16,000 (7.3%) were called active. Roughly 25% stayed inconclusive and do not appear here. The call rests on the fitted dose curve; in most records, active means well fitted inhibition curve with a large enough effect (not every such curve was filed as active); inconclusive means small, poorly fitted or top-dose-only effect, or another doubt; inactive means no such curve, though single readings can be large or run the other way. Shown is part of a subset that was picked to be rich in actives.
Your answer must be one of the following: y (active), n (inactive)

Example cases with answers are listed next.
compound: O=C(CSc1ccccc1F)NC1CCS(=O)(=O)C1 (centres undefined)
label_value: n
//
compound: COc1ccc(C)cc1NC(=O)Nc1ccccc1SC
label_value: n
//
compound: CCOC(=O)c1ccc(N2C(=O)CC(Sc3nc(O)c(CC)c(=O)[nH]3)C2=O)cc1 (centres undefined)
label_value: y
//
compound: COc1ccc(/C=C/C(=O)c2ccc(NS(=O)(=O)c3ccc(C)cc3)cc2)cc1O
label_value: n
//
compound: COc1ccc(CCNC(=O)C(Sc2ccccn2)c2ccccc2)cc1OC (centres undefined)
label_value: n
//
compound: COC(=O)c1sccc1NN1C(=O)c2ccccc2C1=O
label_value: n

Lab log entry: CC(=O)Nc1sc2c(c1C(c1cccc(F)c1)N1CCN(CCO)CC1)CCCC2 (centres undefined) — outcome as called in the assay?
n

Lab log entry: C=CCSC1=C(C#N)C(c2cc(Br)c(O)c(OC)c2)CC(=O)N1 (centres undefined) — outcome as called in the assay?
y

Lab log entry: CS(=O)(=O)N(CC(=O)NCc1ccco1)c1ccc2c(c1)OCO2 — outcome as called in the assay?
n

* * *

# subject_of_test: Aldehyde dehydrogenase 1A1 (Homo sapiens)
# assay_method_text: qHTS Assay for Inhibitors of Aldehyde Dehydrogenase 1 (ALDH1A1); also: potency is read from the fitted curve at half-maximal effect
# measurement_setup: Purified ALDH1A1, NADH fluorescence, propionaldehyde substrate; series mostly up to 75.3 µM
The campaign covered roughly 220,000 compounds. About 16,000 (7.3%) were called active. Not shown: some 25% with an inconclusive outcome. Only a selection was taken, and actives are over-represented in it overall.
reported_endpoint: Potency

These recorded examples may help you get a feel for the data.
compound: COc1ccccc1OCCC(=O)OCC(=O)NCc1ccccc1
Potency: inactive
//
compound: C=CCn1cnc2scc(-c3ccccc3)c2c1=O
Potency: inactive
//
compound: CCC(C(=O)OCC(=O)Nc1ccccc1-c1ccccc1)c1ccccc1 (configuration not stated)
Potency: inactive
//
compound: CCn1c(O)c(N=NC2=NC(=O)CS2)c2cc(C)ccc21
Potency: 14.1 µM (active)

Batch: Potency for all items listed.
1. S=C(NCCCc1cnc[nH]1)NCCCN(Cc1ccc(Cl)c(Cl)c1)c1ccc(Br)cn1
2. O=C(N/N=C/c1ccc2c(c1)OCO2)C(=O)N1CCCC1
3. CCN(CC)CCNS(=O)(=O)c1ccc(/C=C/C(=O)O)cc1
4. CCOC(=O)c1sc(NC(=O)CSc2ncccn2)c(C#N)c1C
5. CC1=C(C/C=C(\C)CCCC(C)CCCC(C)CCCC(C)C)C(=O)c2ccccc2C1=O (configuration not stated)
6. C/C(=N\OCC(=O)Nc1ccc(Br)cc1)c1cccs1

inactive
inactive
inactive
28.2 µM (active)
inactive
inactive

Batch: Potency for all items listed.
1. O=C(COC(=O)c1ccccc1)Nc1cccc(S(=O)(=O)N2CCOCC2)c1
2. CCOC(=O)N1CCN(CC(=O)c2c(C)[nH]c3ccccc23)CC1
3. Cc1c(C(=O)N2CCOCC2)[nH]c2ccc(OCc3ccccc3)cc12
4. Cc1ccccc1C(=O)N1CCC(C(=O)Nc2ccc(S(=O)(=O)N(C)C(C)C)cc2)CC1
5. CC(=O)N1CCN(CCN=CC2=C(O)CC(C)(C)CC2=O)CC1
6. CC(=O)N1N=C(c2ccccc2)OC1c1cccnc1 (configuration not stated)

inactive
11.2 µM (active)
inactive
12.6 µM (active)
inactive
inactive

Batch: Potency for all items listed.
1. Cc1ccc(N(CCC(=O)O)S(=O)(=O)c2cccc(C(F)(F)F)c2)cc1
2. CCOC(=O)c1ccc(NC(=O)CSc2ncccn2)cc1
3. CCCC1NC(=S)NC(C)=C1C(C)=O (configuration not stated)
4. C/C(=N\N1CCN(Cc2ccc(C)cc2)CC1)c1ccco1
5. O=C(CCNC(=O)Cn1ccc2ccccc2c1=O)NCCC1=CCCCC1
6. COC(=O)CC1=NN(c2nc(C)cc(C)n2)C(=O)C1

["inactive", "inactive", "inactive", "inactive", "inactive", "inactive"]
